Below, each of the variants is paired with its reported protein stability index value.
B1: BCL2L13 (parent)
chain: MASSSTVPLGFHYETKYVVLSYLG

variants of: B1; test: protein stability index of a GFP-peptide fusion (GPS, HEK-293T) (PSI 1-6); higher = more stable; conditions: c terminus: a fixed tail appended;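 further: lentivirally expressed fusions sorted by FACS into six bins by GFP to DsRed ratio, PSI derived from sequencing read proportions per bin multiplied by bin number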
Output: the number by itself.

MASSRTVPLGFHYETKYVVLSYLG [S5R] :: 2.4
MASSGTVPLGFHYETKYVVLSYLG [S5G] :: 2.2
MASSSTVPLGFHYETKYVVLSYTG [L23T] :: 1.44
MASSSTVPLGAHYETKYVVLSYLG [F11A] :: 2.41
MASSSTVPLGFHYETAYVVLSYLG [K16A] :: 2.64

// fetch protein stability index given entry MASSSTVPLGFHYETKYNVLSYLG [V18N]
1.56

Quote protein stability index reported for MASSSTVPLGFHYETKYVVLHYLG [S21H] please.
2.27

For the variant MASSSTVPLGFHYETKYVYLSYLG [V19Y] , give its measured protein stability index value.
2.63

Please give the documented protein stability index of MASSSTVPLGFHYETKYVRLSYLG [V19R]
1.41

Identify the reported protein stability index for the following entry. MPSSSTVPLGFHYETKYVVLSYLG [A2P]
2.49

Output measured protein stability index for this item: MASSSTVPLGFHPETKYVVLSYLG [Y13P]
1.84

Tell us which protein stability index value is on record for MASSSTVPLGFHYETKYVVLEYLG [S21E]
1.24

Name the recorded protein stability index of the variant listed here: MAQSSTVPLGFHYETKYVVLSYLG [S3Q]
2.21

Return protein stability index (reported value) for this variant: MASSSCVPLGFHYETKYVVLSYLG [T6C]
1.67

Given the variant MASSSTVPLGFKYETKYVVLSYLG [H12K] , write its reported protein stability index.
2.23

Tell us which protein stability index value is on record for MASSSTVPLGFHYETIYVVLSYLG [K16I]
2.74

Return protein stability index (reported value) for this variant: MASSSTVMLGFHYETKYVVLSYLG [P8M]
3.28

Look up protein stability index of MASSSTVPLGFHIETKYVVLSYLG [Y13I] and report it.
2.65

Given the variant MASSSTVPLGFSYETKYVVLSYLG [H12S] , write its reported protein stability index.
3.12

Check the records and state protein stability index for MASSKTVPLGFHYETKYVVLSYLG [S5K]
1.91

State, in one line, measured protein stability index of MNSSSTVPLGFHYETKYVVLSYLG [A2N]
3.27
